- System: TIE1;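 further: KINOMEscan kinase panel screen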
- conditionLabel: concentration: 1 μM, replicates: in singlicate; n = 1
parameter: %Inh (%)
Number only, in %; omit the unit.

## Task Looking for the measured %Inh of COc1cc(Nc2nccc(-c3c(-c4cccc(NC(=O)c5c(F)cccc5F)c4)nn4ccccc34)n2)cc(OC)c1OC , can you help?
## Result 67

## Task Also CC(C)(C)c1ccc2nccc(Nc3cccc(O)c3)c2c1 , if possible.
## Result 0

## Task Also Nc1ncnc2c1nc(-c1ccccc1)n2-c1ccccc1 , if possible.
## Result 9

## Task Also COc1cc2c(cc1OCCN1CCNCC1)ncc1c3ccc(C#N)cc3[nH]c21 , if possible.
## Result 1

## Task Also Cc1ccc(F)c(C(=O)Nc2cccc(-c3nn4ccccc4c3-c3ccnc(Nc4cccc(F)c4)n3)c2)c1F , if possible.
## Result 55

## Task Also c1ccc(Oc2ccc(Nc3ccnc4cc(-c5ccc(CNCCN6CCOCC6)o5)ccc34)cc2)nc1 , if possible.
## Result 0

## Task Also COc1ccc(-c2coc3ccc(-c4nnc(SCc5ccc(OC)c(C(F)(F)F)c5)o4)cc23)cc1 , if possible.
## Result 0

## Task Also C[C@@H](Oc1cc(-n2cnc3cc(-c4ccnc(NCCS(C)(=O)=O)c4)ccc32)sc1C(N)=O)c1ccccc1Cl , if possible.
## Result 78

## Task Also COc1cc(Nc2nccc(-c3c(-c4cccc(NC(=O)c5c(F)cccc5F)c4)nn4ncccc34)n2)cc(OC)c1OC , if possible.
## Result 90.6

## Task Also Cc1cccc(Nc2nc(N[C@H]3CCNC3)ncc2C(N)=O)c1.Cl , if possible.
## Result 0

## Task Also O=C(Nc1cccc(-c2nn3ccccc3c2-c2ccnc(Nc3cccc(F)c3)n2)c1)c1c(F)ccc(F)c1Cl , if possible.
## Result 48

## Task Also O=c1[nH]cc(-c2ccc(N3CCOCC3)cc2)c2sc(-c3cn[nH]c3)cc12 , if possible.
## Result 0

## Task Also Cl.Cl.NCC(NCc1ccc(-c2ccnc3[nH]ccc23)s1)c1ccccc1 (centres unmarked) , if possible.
## Result 9

## Task Also Nc1ncc(-c2ccc3nccc(-c4ccncc4)c3c2)cc1S(=O)(=O)N1CCOCC1 , if possible.
## Result 3

## Task Also CCc1ccc(-c2ccc3c(c2)-c2c(cnn2C)S(=O)(=O)N3C)cc1 , if possible.
## Result 33

## Task Also C[C@@H]1CC[C@@H](C(=O)Nc2ccccc2)CN1c1cc(-c2ccc3c(N)n[nH]c3c2)nc(N)n1 , if possible.
## Result 0

## Task Also Oc1cc(Nc2ccnc3cc(I)ccc23)ccc1F , if possible.
## Result 0

## Task Also Cl.Cl.NCC(NC(=O)c1cc(-c2ccccc2)c(-c2ccnc3[nH]ccc23)s1)c1ccccc1 (centres unmarked) , if possible.
## Result 13

## Task Also Cl.Cl.NCC(C(=O)Nc1cc(Br)c(-c2ccnc3[nH]ccc23)s1)c1ccccc1 (centres unmarked) , if possible.
## Result 51

## Task Also Fc1ccc(-c2ncn(C3CCNCC3)c2-c2ccnc(Oc3ccc(-c4ccccc4)cc3)n2)cc1 , if possible.
## Result 46

## Task Also Cc1ccc(C(=O)N2CC[C@@H](O)C2)cc1-n1c(C)cc(OCc2ccc(F)cc2F)c(Br)c1=O , if possible.
## Result 0

## Task Also CCS(=O)(=O)c1ccc(OC)c(Nc2nccc(-c3c(-c4cccc(NC(=O)c5c(F)cccc5F)c4)nn4ncccc34)n2)c1 , if possible.
## Result 47

## Task Also Cc1cccc(NC(=O)Nc2ccc(Oc3ncnc4ccn(C)c34)cc2)c1 , if possible.
## Result 59

## Task Also O=C(O)C(F)(F)F.O=C(O)C(F)(F)F.O=c1[nH]ccc2nc(N[C@@H]3CCCNC3)nc(Nc3ccc(S(=O)(=O)N4CCOCC4)cc3)c12 , if possible.
## Result 66

## Task Also Cl.NC(=O)c1cccc(Nc2nccc(Nc3ccc(Oc4c(Cl)cccc4Cl)c(Cl)c3)n2)c1 , if possible.
## Result 33

## Task Also CC(=O)N1CCN(c2ccc(Nc3nccc(-c4sc(C(C)C)nc4-c4cccc(NS(=O)(=O)c5cccc(Cl)c5)c4)n3)cn2)CC1 , if possible.
## Result 76

## Task Also Cl.c1ccc(-c2ccc3c(Nc4ccc5[nH]ccc5c4)ccnc3c2)nc1 , if possible.
## Result 0

## Task Also O=C(Nc1n[nH]c2nc(-c3ccc(O)cc3)ccc12)C1CC1 , if possible.
## Result 0

## Task Also Cn1cc(-c2ccc3c(c2)CCN3C(=O)Cc2cccc(F)c2)c2c(N)ncnc21 , if possible.
## Result 89

## Task Also CNC(=O)c1ccccc1Nc1nc(Nc2ccc(N3CCOCC3)cc2)ncc1Cl.Cl , if possible.
## Result 100

## Task Also COC(=O)Nc1nc2ccc(Oc3ccc(NC(=O)Nc4cc(C(F)(F)F)ccc4F)cc3)cc2n1C.Cl , if possible.
## Result 97

## Task Also CN1CCN(Cc2cccc(-c3ccc4c(Nc5ccc(Oc6ccccc6)cc5)ccnc4c3)c2)CC1 , if possible.
## Result 10
